test system: Fibroblast; assay: Multiplex assay against human fibroblast; type: toxicity, cell-based; conditions: 48 h, 10 µM, compound concentration 10 uM, replicate 1
Exercise: for every item that follows, state its recorded Population Membrane Permeable-Phenotype (%).
State the value, then name its unit.

For each listed entry, give its Population Membrane Permeable-Phenotype (%).
1. CCCc1cc(C)[nH]c(=O)c1CNC(=O)c1cc(-c2ccc(N3CCN(C(C)C)CC3)nc2)cc2c1cnn2C(C)C
2. C=CC(=O)Nc1cc(-n2c(=O)ccc3cnc4ccc(-c5ccc(NS(C)(=O)=O)cc5)cc4c32)ccc1C
3. Cc1ccc(S(=O)(=O)NC2c3ccccc3Oc3ccccc32)cc1
4. Cc1c(P(=S)(c2ccccc2)c2ccccc2)n2ccccc2[n+]1C/C=C/c1ccccc1.[Br-]

**Result**
1. 5%
2. 29%
3. 20%
4. 0%

* * *

tested on: U2OS; experiment: Multiplex assay against U2OS; type: toxicity, cell-based; settings: human, 24 h, 10 µM, compound concentration 10 uM, replicate 2
EXPERIMENTAL_ENDPOINT: Population Mitochondria Different-Phenotype (%)
Don't forget the unit after the value.

Worked examples, 3 compounds total:
CCOC(=O)CCNc1cc(N2CCc3ccccc3CC2)nc(-c2ccccn2)n1 :: 36%
N#Cc1cccc(C(=O)Nc2cc(-c3ccccc3)nn2-c2ccccc2)c1 :: 71%
Cc1ccc(S(=O)(=O)NC2c3ccccc3Oc3ccccc32)cc1 :: 14%

List Population Mitochondria Different-Phenotype (%) for every entry below, keeping the order given.
1. CCCCN(CC)c1nc(C)nc2c1c(C)cn2-c1c(C)cc(C)cc1C.Cl
2. NC(=O)c1ccc2nc(-c3ccc(C4(N)CCC4)cc3)c(-c3ccccc3)n2n1

**Result**
1. 54%
2. 28%

* * *

tested on: Fibroblast; assay: Multiplex assay against human fibroblast; type: toxicity, cell-based; conditions: 24 h, 10 µM, compound concentration 10 uM, replicate 1
In plain terms, low Population Normal (%), meaning strictly below 80%, gives criterion met, and everything else gives criterion not met.

# count of solved cases: 5
Cl.NC[C@@H]1O[C@H](C23CC4CC(CC(C4)C2)C3)Cc2c1ccc(O)c2O :: criterion met
CC[C@@]1(O)C(=O)OCc2c1cc1n(c2=O)Cc2cc3ccccc3nc2-1 :: criterion met
Cc1ccc(S(=O)(=O)NC2c3ccccc3Oc3ccccc32)cc1 :: criterion not met
CC(/C=C1\SC(=S)N(CCCC(=O)Nc2ccc(C(=O)O)c(O)c2)C1=O)=C\c1ccccc1 :: criterion met
CC[C@H](Nc1ncnc2[nH]cnc12)c1nc2cccc(F)c2c(=O)n1-c1ccccc1 :: criterion not met

# next molecule below
**Query** Please let me know if `Oc1cccc(-c2nc(N3CCOCC3)c3oc4ncccc4c3n2)c1` shows Population Normal (%) below 80%.
**Result** criterion met

* * *

test system: HEK-293T; test: Multiplex assay against HEK293T; type: toxicity, cell-based; conditions: human, 48 h, 10 µM, compound concentration 10 uM, replicate 2
// NB: equality with 7% counts as no (0); only Population Hoechst High Intensity Objects (%) strictly below is yes (1)

Example cases with answers are listed next.
CC(Cc1ccc(O)c(O)c1)C(C)Cc1ccc(O)c(O)c1 (configuration not stated) [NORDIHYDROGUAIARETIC ACID] :: yes (1)
CN(c1cc(C(F)(F)F)nc(OCCC(=O)O)n1)c1cccc2c1CCC2 :: yes (1)
c1ccc(-c2oc3ncnc(NC[C@@H]4CCCO4)c3c2-c2ccccc2)cc1 :: yes (1)
Cc1c(Nc2ccc(S(=O)(=O)N3CCN(C)CC3)cc2F)nc2ccc(-c3cnn(C4CC4)c3)cn2c1=O :: no (0)

**Query** Answer whether the compound `Cc1c(P(=S)(c2ccccc2)c2ccccc2)n2ccccc2[n+]1C/C=C/c1ccccc1.[Br-]` has Population Hoechst High Intensity Objects (%) strictly less than 7%
**Result** no (0)

**Query** In the record for `C=CC(=O)Nc1cc(-n2c(=O)ccc3cnc4ccc(-c5ccc(NS(C)(=O)=O)cc5)cc4c32)ccc1C` , is Population Hoechst High Intensity Objects (%) less than 7%?
**Result** yes (1)

**Query** Find out if reported Population Hoechst High Intensity Objects (%) for CC(C)[C@H](CO)Nc1nc(Nc2cccc(Cl)c2)c2ncn(C(C)C)c2n1 [PURVALANOLA] is less than 7%
**Result** yes (1)

**Query** Does `CC(/C=C1\SC(=S)N(CCCC(=O)Nc2ccc(C(=O)O)c(O)c2)C1=O)=C\c1ccccc1` have Population Hoechst High Intensity Objects (%) strictly under 7%?
**Result** yes (1)

**Query** I wonder whether `CCCCN(CC)c1nc(C)nc2c1c(C)cn2-c1c(C)cc(C)cc1C.Cl` has Population Hoechst High Intensity Objects (%) below 7%. Can you tell?
**Result** yes (1)

**Query** Quick check: does `CN1CCN(Cc2ccc(-c3cnc4[nH]cc(-c5ccc6[nH]ccc6c5)c4c3)cc2)CC1` have Population Hoechst High Intensity Objects (%) under 7%?
**Result** no (0)
